// data source = patent US12448388B2

Field: CC50. Provide a value for each of the compounds that follow.
Tested on: HCT116 MTAP-deleted cell lines
Assay: Cell viability assay (CellTiter-Glo, 7 days), HCT116 MTAP-deleted
Format: cell-based
Details: Homo sapiens, HCT-116; cell viability, HCT116 MTAP-deleted; class symbols; read-out: CC50

Consider the worked cases shown below.
COc1cc2c(cc1F)[C@H]1[C@H](CCCN1C(=O)c1cc3c(cc1F)nc(N)c1cncn13)OC2 (racemic) = < 0.1 µM
CC1(C)C[C@@H]2Oc3cc(C(F)(F)F)ccc3[C@@H]2N(C(=O)c2cc3c(cn2)nc(N)c2cncn23)C1 (racemic) = < 0.1 µM
Cc1ncc2c(N)nc3ccc(C(=O)N(Cc4ccc(C(F)(F)F)cn4)N(C)c4ncccn4)cc3n12 = < 0.1 µM
[2H]C([2H])([2H])N(C(=O)c1cc2c(cc1F)nc(N)c1cncn12)[C@@H]1COc2cc(C(F)(F)F)ccc21 = < 0.1 µM
CN(C(=O)c1cc2c(cc1F)nc(N)c1cncn12)[C@@H]1COCc2cc(Br)ccc21 = < 0.1 µM
CC(=O)N1CCN(C(=O)c2cc3c(cc2F)nc(N)c2cncn23)C(c2ccc(C(F)(F)F)cn2)C1 (stereo not shown) = 0.1 to 1 µM
Nc1nc2cc(F)c(C(=O)N3CCO[C@@H]4Cc5ccccc5[C@@H]43)cc2n2cncc12 (racemic) = 0.1 to 1 µM
Cc1ncc2c(N)nc3cnc(C(=O)N4CCC[C@@H]5Oc6c(ccc(OC(F)(F)F)c6F)[C@@H]54)cc3n12 = < 0.1 µM
Nc1nc2cc(F)c(C(=O)N3CCO[C@@H]4Cc5cc(C(F)(F)F)ccc5[C@@H]43)cc2n2cncc12 (racemic) [Ff-34] = < 0.1 µM
Cc1ncc2c(N)nc3cnc(C(=O)N4CCC[C@@H]5Oc6cc(OC(F)(F)F)ccc6[C@@H]54)cc3n12 = < 0.1 µM

For every item in the list below, what is its measured CC50?
1. C[C@H](c1ncccn1)N(Cc1ccc(C(F)(F)F)cn1)C(=O)c1ccc2nc(N)c3cncn3c2c1
2. Cc1ncc2c(N)nc3cc(F)c(C(=O)N4CCOC[C@@H]4c4ccc(C(F)(F)F)cc4)cc3n12
3. CN(C(=O)c1cc2c(cc1F)nc(N)c1cncn12)[C@@H]1COc2cc(C(F)(F)F)ccc21
4. Nc1nc2ccc(C(=O)N3CCC[C@@H]4Cc5cc(C(F)(F)F)ccc5[C@@H]43)cc2n2cncc12 (racemic)
5. Nc1nc2ccc(C(=O)N3CCOC[C@@H]3c3ccc(C(F)(F)F)cc3)cc2n2cncc12

< 0.1 µM
< 0.1 µM
< 0.1 µM
0.1 to 1 µM
0.1 to 1 µM

Go through the list and state CC50 for each entry.
1. COC(C)(C)C#Cc1ccc2c(c1)OC[C@H]2N(C)C(=O)c1ccc2nc(N)c3cnc(C)n3c2c1
2. CN(C(=O)c1cc2c(cc1F)nc(N)c1cncn12)C1CCOc2cc(C(F)(F)F)ccc21 (stereo not shown)
3. Nc1nc2cc(F)c(C(=O)N(Cc3ccc(C(F)(F)F)cc3F)C(CO)CO)cc2n2cncc12

1: 0.1 to 1 µM; 2: 0.1 to 1 µM; 3: > 1 µM

Report CC50 for each item below.
1. C[C@H]1CN(C(=O)c2cc3c(cc2F)nc(N)c2cncn23)[C@@H](c2ccc(C(F)(F)F)cn2)CO1
2. CN(C(=O)c1cc2c(cc1F)nc(N)c1cncn12)[C@@H]1COc2ccc([C@H]3C[C@@H]3C#N)cc21 (stereo in doubt)
3. N#Cc1cc2nc(N)c3cncn3c2cc1C(=O)N1CCC[C@@H]2Oc3cc(C(F)(F)F)ccc3[C@@H]21
4. Nc1nc2cc(F)c(C(=O)N3CCC[C@@H]4Cc5cc(C(F)(F)F)ccc5[C@@H]43)cc2n2cncc12 (racemic)

["< 0.1 µM", "0.1 to 1 µM", "< 0.1 µM", "< 0.1 µM"]
